- Tested on: MDA-MB-231
- Test Protocol: Antiproliferative activity against human MDA-MB-231 cells after 48 hrs by MTT assay
- Assay type: functional, cell-based
- Condition Notes: MDA-MB-231, 48 h
Lab note - cut at 6 µM for IC50: rule met if strictly below, rule not met if not.

Record Smiles: COc1cc(NS(C)(=O)=O)c2cc1Oc1ccc(cc1)C[C@H]1c3cc(c(OC)cc3CCN1C)Oc1c(OC)c(OC)cc3c1[C@H](C2)N(C)CC3
Qualitative Label: rule met

Record Smiles: COc1cc(NS(=O)(=O)c2ccccc2F)c2cc1Oc1ccc(cc1)C[C@H]1c3cc(c(OC)cc3CCN1C)Oc1c(OC)c(OC)cc3c1[C@H](C2)N(C)CC3
Qualitative Label: rule not met

Record Smiles: COc1cc(N)c2cc1Oc1ccc(cc1)C[C@H]1c3cc(c(OC)cc3CCN1C)Oc1c(OC)c(OC)cc3c1[C@H](C2)N(C)CC3
Qualitative Label: rule met

Record Smiles: COc1cc(NS(=O)(=O)c2ccccc2[N+](=O)[O-])c2cc1Oc1ccc(cc1)C[C@H]1c3cc(c(OC)cc3CCN1C)Oc1c(OC)c(OC)cc3c1[C@H](C2)N(C)CC3
Qualitative Label: rule met

Record Smiles: CCCCS(=O)(=O)Nc1cc(OC)c2cc1C[C@H]1c3c(cc(OC)c(OC)c3Oc3cc4c(cc3OC)CCN(C)[C@H]4Cc3ccc(cc3)O2)CCN1C
Qualitative Label: rule met

Record Smiles: COc1cc(NS(=O)(=O)c2ccc(Cl)cc2)c2cc1Oc1ccc(cc1)C[C@H]1c3cc(c(OC)cc3CCN1C)Oc1c(OC)c(OC)cc3c1[C@H](C2)N(C)CC3
Qualitative Label: rule met

Record Smiles: COc1cc(NS(=O)(=O)C(F)(F)F)c2cc1Oc1ccc(cc1)C[C@H]1c3cc(c(OC)cc3CCN1C)Oc1c(OC)c(OC)cc3c1[C@H](C2)N(C)CC3
Qualitative Label: rule not met

Record Smiles: CCCS(=O)(=O)Nc1cc(OC)c2cc1C[C@H]1c3c(cc(OC)c(OC)c3Oc3cc4c(cc3OC)CCN(C)[C@H]4Cc3ccc(cc3)O2)CCN1C
Qualitative Label: rule met

Record Smiles: COc1cc(NS(=O)(=O)c2c(C(C)C)cc(C(C)C)cc2C(C)C)c2cc1Oc1ccc(cc1)C[C@H]1c3cc(c(OC)cc3CCN1C)Oc1c(OC)c(OC)cc3c1[C@H](C2)N(C)CC3
Qualitative Label: rule met

Record Smiles: COc1cc(NS(=O)(=O)c2ccc(C(C)(C)C)cc2)c2cc1Oc1ccc(cc1)C[C@H]1c3cc(c(OC)cc3CCN1C)Oc1c(OC)c(OC)cc3c1[C@H](C2)N(C)CC3
Qualitative Label: rule met

Record Smiles: CC[C@]1(O)C[C@H]2CN(CCc3c([nH]c4ccccc34)[C@@](C(=O)OC)(c3cc4c(cc3OC)N(C=O)[C@H]3[C@@](O)(C(=O)OC)[C@H](OC(C)=O)[C@]5(CC)C=CCN6CC[C@]43[C@@H]65)C2)C1
Qualitative Label: rule not met

Record Smiles: COc1ccc2cc1Oc1ccc(cc1)C[C@H]1c3cc(c(OC)cc3CCN1C)Oc1c(OC)c(OC)cc3c1[C@H](C2)N(C)CC3
Qualitative Label: rule not met

Record Smiles: COc1cc(NS(=O)(=O)c2ccc(Cl)nc2)c2cc1Oc1ccc(cc1)C[C@H]1c3cc(c(OC)cc3CCN1C)Oc1c(OC)c(OC)cc3c1[C@H](C2)N(C)CC3
Qualitative Label: rule not met

Record Smiles: COc1cc(NS(=O)(=O)c2ccc(NC(C)=O)cc2)c2cc1Oc1ccc(cc1)C[C@H]1c3cc(c(OC)cc3CCN1C)Oc1c(OC)c(OC)cc3c1[C@H](C2)N(C)CC3
Qualitative Label: rule not met

Record Smiles: COc1cc(NS(=O)(=O)c2cccc(Br)c2)c2cc1Oc1ccc(cc1)C[C@H]1c3cc(c(OC)cc3CCN1C)Oc1c(OC)c(OC)cc3c1[C@H](C2)N(C)CC3
Qualitative Label: rule met

Record Smiles: COc1cc([N+](=O)[O-])c2cc1Oc1ccc(cc1)C[C@H]1c3cc(c(OC)cc3CCN1C)Oc1c(OC)c(OC)cc3c1[C@H](C2)N(C)CC3
Qualitative Label: rule not met

Record Smiles: COc1cc(NS(=O)(=O)c2ccccc2)c2cc1Oc1ccc(cc1)C[C@H]1c3cc(c(OC)cc3CCN1C)Oc1c(OC)c(OC)cc3c1[C@H](C2)N(C)CC3
Qualitative Label: rule not met

Record Smiles: COc1cc(NS(=O)(=O)c2cccc3cccnc23)c2cc1Oc1ccc(cc1)C[C@H]1c3cc(c(OC)cc3CCN1C)Oc1c(OC)c(OC)cc3c1[C@H](C2)N(C)CC3
Qualitative Label: rule not met

Record Smiles: COc1cc(NS(=O)(=O)c2ccc([N+](=O)[O-])cc2)c2cc1Oc1ccc(cc1)C[C@H]1c3cc(c(OC)cc3CCN1C)Oc1c(OC)c(OC)cc3c1[C@H](C2)N(C)CC3
Qualitative Label: rule not met
